molecular target: agr response in group III (RN8463) S. aureus; assay: agr P3-blaZ β-lactamase reporter assay, inhibition of the agr response; format: cell-based; settings: group III (RN8463), midexponential phase, 80 minutes
Assay Metric: IC50
Form field: result (number plus unit)

Form field IC50 for item YSTCDFIM [Agr D1 Thiolactone, YSTCDFIM (SEQ ID NO: 9)] on agr response in group III (RN8463) S. aureus: 3.2 nM

---

target: agr response in group I (RN6390B) S. aureus; assay: agr P3-blaZ β-lactamase reporter assay, activation of the agr response; type: cell-based; settings: early exponential phase, 55 minutes, read-out: ED50 Activation, S. aureus Group I
Assay Metric: pEC50
Answer as the number alone; pEC50 is minus log10 of concentration in mol/L.

response.value for YSTCDFIM [Agr D1 Thiolactone, YSTCDFIM (SEQ ID NO: 9)] (field: pEC50) = 7.99

---

molecular target: agr response in group II (SA502A) S. aureus; test: agr P3-blaZ β-lactamase reporter assay, inhibition of the agr response; format: cell-based; details: group II (SA502A), midexponential phase, 80 minutes
Assay Metric: pIC50
Answer as the number alone; pIC50 is minus log10 of concentration in mol/L.

response.value for YSTCDFIM [Agr D1 Thiolactone, YSTCDFIM (SEQ ID NO: 9)] (field: pIC50) = 8.54

---

target: agr response in group I (RN6390B) S. aureus; test: agr P3-blaZ β-lactamase reporter assay, inhibition of the agr response; assay type: cell-based; conditions: group I (RN6390B), midexponential phase, 80 minutes
For each of the sequences below, state its pIC50.
Answer as the number alone; pIC50 is minus log10 of concentration in mol/L.

response.value for GVNAXSSLF (SEQ ID NO: 1) [Agr D2 Lactam] (field: pIC50) = 9.68

response.value for GVNASSSLF (SEQ ID NO: 1) [Agr D2 Lactone] (field: pIC50) = 8.10
